Test: Human HepG2 cell viability assay in 384 well format
Type: toxicity, cell-based
Set-up: dose 125 nL, time 70.5 hour; concentration not given beside the values
Conditions: HepG2 cells, read-out: Inhibition
Here the recorded cytotoxicity at 70.5 h is given for each entry.
Answer in %, number only, no unit symbol.

Which cytotoxicity at 70.5 h is listed for "Cc1cc(C)n(-c2ccc(NCCNS(=O)(=O)c3ccccc3)nn2)n1" ?
-5.4

Query "CC(=O)N1CCC12CCN(Cc1ccco1)CC2" next
19.9

* * *

Assay: Human HepG2 cell viability assay in 384 well format
Assay type: toxicity, cell-based
Set-up: dose 125 nL, time 70.5 hour; concentration not given beside the values
Conditions: HepG2 cells, read-out: Inhibition
Here, each record is paired with measured cytotoxicity at 70.5 h data.
I only need the number, in %, no unit after it.

Illustrative cases are given below, each with its answer.
COCCN1CCC(C(=O)c2cc(F)ccc2F)CC1 = -2.7
COCCC(=O)N1CCCC(CCC(=O)Nc2ccc(Cl)cc2)C1 (stereo not given) = -6.03
CN(C(=O)c1ccccn1)c1nc2c(s1)CCc1c-2cnn1C = 8.04

Need cytotoxicity at 70.5 h, item CCc1nc(CN2CCCC(NCc3nnc(C4CC4)n3C)C2)no1 (stereo not given)
-8.85

Repeat for the following compound: CCc1nc(N)nc(N2CCCC3(CN(C)C(=O)O3)C2)c1C (stereo not given)
-10.4

* * *

Assay: Human HepG2 cell viability assay in 384 well format
Assay type: toxicity, cell-based
Parameters: dose 125 nL, time 70.5 hour; concentration not given beside the values
Details: HepG2 cells, read-out: Inhibition
Value Type: cytotoxicity at 70.5 h (%)
Write it as a number; the unit % goes unstated.

Worked cases, answers included:
CN(C)C(CNC(=O)c1cccc(-n2cnnn2)c1)c1ccccc1Cl (configuration not stated) = -2.81
OCC(O)CN1CCc2onc(-c3ccc(C(F)(F)F)cc3)c2C1 (configuration not stated) = -8.17
COc1cc(F)ccc1N1CCN(Cc2nnc(C3CC3)o2)CC1 = -14.9
Cc1ccc2c(c1)c(C)cc(=O)n2CCC(=O)O = -6.14
CCc1ccc(C(=O)N2CCN(CC(C)O)CC2)o1 (configuration not stated) = 2.04

Continue with the molecule presented below.
Give the measured cytotoxicity at 70.5 h of Cc1nc(CNCC(O)COc2ccc3c(c2)OCO3)cs1 (configuration not stated) .
1.9

* * *

Experiment: Human HepG2 cell viability assay in 384 well format
Assay type: toxicity, cell-based
Design: dose 125 nL, time 70.5 hour; concentration not given beside the values
Conditions: HepG2 cells, read-out: Inhibition
# reported cytotoxicity at 70.5 h; entries follow
Return type: number; implicit unit %.

Cc1cc(CNC(=O)N2CCN(Cc3ccccc3)C[C@H]2C)on1 = 30.7
COC(=O)CNC(=O)N1CCC2(CC1)CC(c1ccccc1)CN(C)C2 (stereo unspecified) = 15.9
Cc1ccc(CN2CCC3(CC(C(=O)NC4CCC4)=NO3)C2)o1 (stereo unspecified) = -14.5
COc1ncc(C(=O)N2CCC(c3nc(C)n4ccsc34)CC2)cn1 = 24.2
COc1cc(C)sc1C(=O)N1CCC(Nc2cccnc2)CC1 = -5.15

Report cytotoxicity at 70.5 h for "CC(C)SCC(=O)NCc1cc2n(n1)CCCN(C1CCCCC1)C2" please.
25.3

And the next one, CCCc1cncnc1N1CCCC2(CCC(=O)N(C3CCCC3)C2)C1 (stereo unspecified) ?
-9.78

Same question, "Cc1nnc([C@H]2C[C@H]3CN(C(=O)Cc4ccc(F)cc4)CC[C@@H]3O2)o1" this time
-6.08

Do the same for "CCc1nnsc1C(=O)N(C)Cc1ccc(C)o1" please
-0.808

Would you kindly repeat that for Cc1occc1C(=O)N1CCOCC2(CCN(C3CCOCC3)C2)C1 (stereo unspecified) ?
-19.7

Ok, now "C=C(C)Cn1cc(C(N)=O)nc1C1CC1"
20.9

* * *

Some compounds, each annotated with its measured cytotoxicity at 70.5 h.
Assay: Human HepG2 cell viability assay in 384 well format
Assay type: toxicity, cell-based
Parameters: dose 125 nL, time 70.5 hour; concentration not given beside the values
Conditions: HepG2 cells, read-out: Inhibition
Field format: number, assumed %, no unit text.

Cn1ccnc1-c1cccc(NC(=O)NCCN2CCOCC2)c1 = -3.53
O=C(CN1CCCC1c1cccs1)N1CCc2sccc2C1 (stereo unspecified) = -0.311
CCc1noc(C(C)N(C)CC(=O)Nc2ccc(C)cc2)n1 (stereo unspecified) = -4.51
COCc1cc(O)nc(C2CCCN(Cc3ccc(F)cc3)C2)n1 (stereo unspecified) = -0.561
Cc1cc(C(=O)Nc2n[nH]c(C3CC3)n2)c2c(C)noc2n1 = 29
CCCc1nnc(SCC(=O)Nc2cc(C(C)(C)C)nn2C)[nH]1 = -13.2

Entry "CNC(=O)c1cc2c(nc1NCC1CC1)CCN(c1ncccn1)CC2" has what cytotoxicity at 70.5 h?
-20.8

# iterate: Cc1noc(C)c1CNC(=O)N1CCC(C(O)c2ccccc2)CC1 (stereo unspecified)
-6

Then this compound: "Cc1cc(Cl)ccc1C(=O)N[C@H]1CN(S(C)(=O)=O)C[C@@H]1C1CC1"
-0.333

Try "CC(C)(CNC(=O)C(C)(C)c1ccccc1F)C(N)=O" next.
2.08

Next record, please: "CN(C(=O)CCC(F)(F)F)c1cccc2ncccc12"
42.6

* * *

Test: Human HepG2 cell viability assay in 384 well format
Assay type: toxicity, cell-based
Design: dose 125 nL, time 70.5 hour; concentration not given beside the values
Conditions: HepG2 cells, read-out: Inhibition
Reported cytotoxicity at 70.5 h values for a set of compounds
Number in %, nothing else.

Illustrative cases are given below, each with its answer.
Cc1noc(CN2CCN(CCO)CC2)n1 = -3.7
CN1CCC/C1=N\S(=O)(=O)c1ccc(NC(=O)c2ccsc2)cc1 = -11.8
Cc1cc2ccccc2n1CC(=O)N[C@@H](C)C(=O)O = -19.5
CC1CCCCN1C(=O)c1nc2c(n1C(C)C)CCN(C)C2 (stereo not drawn) = -14
CC(Cn1cccn1)NC(=O)Nc1nncs1 (stereo not drawn) = -2.31

Look up cytotoxicity at 70.5 h for this compound: "CNC(=O)COc1nc(C(C)(C)C)no1"
3.09

Another compound to look at: "CN(C)C(=O)NCc1nnc2n1CCN(Cc1cccs1)C2"
-2.91

Input Cc1cc(NC2CCc3ncnn3C2)n2nc(C(F)(F)F)nc2n1 (stereo not drawn)
-95.5

// next record Cc1nc(CN(C)C2CCCN(c3cccnn3)C2)oc1C (stereo not drawn)
3.03

* * *

Assay: Human HepG2 cell viability assay in 384 well format
Type: toxicity, cell-based
Set-up: dose 125 nL, time 70.5 hour; concentration not given beside the values
Details: HepG2 cells, read-out: Inhibition
Value Type: cytotoxicity at 70.5 h (%)
Numbers only; they are read as %.

Answered cases to consult:
O=C(CCc1cn[nH]c1)N1C[C@H](CO)C[C@H](CN2CCOCC2)C1 = -8.81
CC(NC(=O)CCS(=O)(=O)C1CCCC1)c1nc(-c2ccccc2)c[nH]1 (centres undefined) = -3.16
CC(C)Cn1cnc(S(=O)(=O)Nc2cccnc2-n2cccn2)c1 = -1.98
CCCc1nc(CN(C)CCOc2ccccc2)cs1 = -8.59
COc1cc(CO)ccc1OCc1nc(C(C)C)no1 = -3.56
CNc1nc(C(=O)N2CCn3nc(C(=O)OC)cc3C2)cs1 = -4.4
O=C(c1ccc(N2CCCC2)nn1)N1CCCC(n2cccn2)C1 (centres undefined) = -1.11
CSc1ccccc1CN1C[C@H]2CC[C@@H]1CN(Cc1[nH]cnc1C)C2 = 17.6
COCCN(C)C(=O)Nc1ccc2c(ccn2CCOC)c1 = 32.1
Cc1cccc(N2CCN(C(=O)CCc3c(C)noc3Cl)CC2)c1 = -8.69

Param item = "Cc1ccc(NC2CCN(C(=O)CCc3ccncc3)CC2)nn1" ; retrieve measured cytotoxicity at 70.5 h.
-7.44

Please answer likewise for Cc1ccc(CN(C)C(=O)C(C)n2cncn2)o1 (centres undefined)
-4.1

Param item: "CN1CCC(CN(C)S(=O)(=O)CC2CCCCC2)CC1"
11.1

Then this compound: CC(C)c1nc(C2CCCN2C(=O)c2cc(Cl)c[nH]2)no1 (centres undefined)
-2.12

Further, for "O=C(Cn1c(=O)nc2n1C(=O)N(c1ccccc1)C2)Nc1ccccc1" ?
-7.97

// repeat for "CSCCCNC(=O)c1coc(Cn2cnc3ccccc32)n1" and report
-6.75

Next compound up: "Cc1ccccc1CS(=O)(=O)NCCCN1CCCCC1"
-4.67

Please do the same for "COc1c(CNC2(c3noc(C)n3)CCC2)c(C(C)C)nn1C" as well.
-0.972

Next compound: "O=C(O)c1cn(-c2ccccn2)c(=O)c2ccccc12"
-11.1

For CCN(CC(F)(F)F)C(=O)C1CCCN(Cc2nc(C)c(C)o2)C1 (centres undefined) then?
-1.99

Same read-out for "N#Cc1ccc(Cl)cc1N1CCC(OC2CCOCC2)CC1" ?
-3.88

Next up: "Cc1ccc(-c2ccc(Cl)nn2)cc1S(=O)(=O)N1CCOCC1"
-5.38

Likewise for "Cc1ccc2nc(CN(C)Cc3n[nH]c4c3CCCCC4)[nH]c2c1C" ?
-3.25

Quick one: CCc1csc(C2CCCN(C(=O)c3ccc(OC)nn3)C2)n1 (centres undefined)
-9.56

Reference for the values: ChEMBL document CHEMBL3507680
